- assay overview: Pharmacokinetic determination in mice (IV and PO, plasma, LCMS/MS)
- Assay type: in vivo, Balb/c mice
- test context: mouse, in vivo; Balb/c mice, intravenously (IV), 1 mg/kg, plasma; read-out: C0
Please note: C0 exactly at 400 ng/mL is N. Only values below 400 ng/mL get Y.

See these solved cases before continuing.
query smiles | assigned category
C#Cc1c(F)ccc2cc(O)cc(-c3nc4c5c(nc(OCC6(CN7CCC(=C(F)F)CC7)CC6)nc5c3F)N3C[C@H]5CC[C@H](N5)[C@H]3[C@H](C)O4)c12 | N
[2H]C([2H])([2H])[C@@H]1Oc2nc(-c3cc(N)cc(Cl)c3C(F)(F)F)c(F)c3nc(OCC4(CN5CCC(=NOC)CC5)CC4)nc(c23)N2C[C@H]3CC[C@H](N3)[C@@H]12 | Y
C#Cc1c(F)ccc2cc(O)cc(-c3nc4c5c(nc(OCC6(CN7CCC(=C(F)F)CC7)CC6)nc5c3F)N3C[C@H]5CC[C@H](N5)[C@H]3CO4)c12 | N

# ---- query molecule ----
*Q* Confirm or reject: C0 of "C#Cc1c(F)ccc2cc(O)cc(-c3nc4c5c(nc(OCC6(CN7CCC(=NOC)CC7)CC6)nc5c3F)N3C[C@H]5CC[C@H](N5)[C@H]3[C@H](C)O4)c12" lies strictly below 400 ng/mL
*A* N

----------
- measurement target: KRAS G12D-SOS1 (Homo sapiens, UniProt P01116, G12D)
- Construct: purchased Cisbio 63ADK000CB17PEG
- Sequence (P01116 1-188 isoform P01116-2 G12D): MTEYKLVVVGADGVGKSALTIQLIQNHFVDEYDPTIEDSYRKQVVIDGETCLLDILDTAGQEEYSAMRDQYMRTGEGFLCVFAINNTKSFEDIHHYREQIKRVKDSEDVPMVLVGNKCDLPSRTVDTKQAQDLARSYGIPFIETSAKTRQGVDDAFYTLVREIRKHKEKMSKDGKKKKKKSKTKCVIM
- assay overview: Blocking of KRAS G12D-SOS1 protein binding (Cisbio KRAS-G12D/SOS1 Binding Assay Kit, time-resolved fluorescence)
- test context: KRAS G12D-GTP and SOS1 protein, signal ratio 665nm/620nm; read-out: G12D SOS1 biochemical IC50
metric: IC50 (nM)
Numbers only, in nM.

Kindly give each listed record's IC50.
1. C#Cc1c(F)ccc2cc(O)cc(-c3nc4c5c(nc(OCC6(CN7CCC(=CF)C7)CC6)nc5c3F)N3CC5CCC(N5)C3CO4)c12 (stereo not shown)
2. C#Cc1c(F)ccc2cc(O)cc(-c3nc4c5c(nc(OCC6(CN7CCC(=C(F)F)C7)CC6)nc5c3F)N3CC5CCC(N5)C3CO4)c12 (stereo not shown)

*A*
[3, 4.3]

Kindly give each listed record's IC50.
1. C#Cc1c(F)ccc2cc(O)cc(-c3nc4c5c(nc(OCC6(CN7CC8CC(=C(F)F)CC8C7)CC6)nc5c3F)N3CC5CCC(N5)C3CO4)c12 (stereo not shown)
2. C#Cc1c(F)ccc2cc(O)cc(-c3nc4c5c(nc(OCC6(CN7CCC(=NOC)CC7)CC6)nc5c3F)N3CC5CCC(N5)C3CO4)c12 (stereo not shown)

*A*
1. 2.6
2. 1.9

----------
- assay overview: Pharmacokinetic determination in rats (IV and PO, plasma, LCMS/MS)
- Type: in vivo, SD rats
- test context: rat, in vivo; IV, 1 mg/kg, male SD rats, overnight fasting, plasma; read-out: AUCo-∞
Record form. Attribute: AUC(0-inf). Fill in for each entry.
One number for each entry, in ng·h/mL.

Consider the reported AUC(0-inf) for these compounds:
compound | readout unit | AUC(0-inf)
C#Cc1c(F)ccc2cc(O)cc(-c3nc4c5c(nc(OCC6(CN7CCC(=CF)CC7)CC6)nc5c3F)N3C[C@H]5CC[C@H](N5)[C@H]3[C@H](C)O4)c12 [Example 129] | ng·h/mL | 578
[2H]C([2H])([2H])[C@@H]1Oc2nc(-c3cc(O)cc4ccc(F)c(C#C)c34)c(F)c3nc(OCC4(CN5CCC(=CF)CC5)CC4)nc(c23)N2C[C@H]3CC[C@H](N3)[C@@H]12 [Example 164] | ng·h/mL | 774
[2H]C([2H])([2H])[C@@H]1Oc2nc(-c3cc(N)cc(Cl)c3C(F)(F)F)c(F)c3nc(OCC4(CN5CCC(=NOC)CC5)CC4)nc(c23)N2C[C@H]3CC[C@H](N3)[C@@H]12 [Example 339] | ng·h/mL | 98
C#Cc1c(F)ccc2cc(O)cc(-c3nc4c5c(nc(OCC6(CN7CCC(=C(F)F)CC7)CC6)nc5c3F)N3C[C@H]5CC[C@H](N5)[C@H]3[C@H](C)O4)c12 [Example 19-1] | ng·h/mL | 1900
C#Cc1c(F)ccc2cc(O)cc(-c3nc4c5c(nc(OCC6(CN7CCC(=CF)CC7)CC6)nc5c3F)N3C[C@H]5CC[C@H](N5)[C@H]3[C@H](CC)O4)c12 [Example 137] | ng·h/mL | 793
C#Cc1c(F)ccc2cc(O)cc(-c3nc4c5c(nc(OCC6(CN7CCC(=NOC)CC7)CC6)nc5c3F)N3C[C@H]5CC[C@H](N5)[C@H]3[C@H](C)O4)c12 [Example 35-1] | ng·h/mL | 571
C#Cc1c(F)ccc2cc(O)cc(-c3nc4c5c(nc(OCC6(CN7CCC(=C(F)F)CC7)CC6)nc5c3F)N3C[C@H]5CC[C@H](N5)[C@H]3CO4)c12 [Example 1-1] | ng·h/mL | 2960

*Q* Any idea what its AUC(0-inf) is? The compound is C#Cc1c(F)ccc2cc(O)cc(-c3nc4c5c(nc(OCC6(CN7CCC(=C(F)F)CC7)CC6)nc5c3F)N3C[C@H]5CC[C@H](N5)[C@H]3[C@H](CC)O4)c12 [Example 124]
*A* 1110

----------
- assay overview: Pharmacokinetic determination in rats (IV and PO, plasma, LCMS/MS)
- Assay type: in vivo, SD rats
- test context: rat, in vivo; PO, 30 mg/kg, male SD rats, overnight fasting, plasma; read-out: Tmax
Record form. Attribute: Tmax. Fill in for each entry.
One number for each entry, in h.

compound | metric | value
C#Cc1c(F)ccc2cc(O)cc(-c3nc4c5c(nc(OCC6(CN7CCC(=C(F)F)CC7)CC6)nc5c3F)N3C[C@H]5CC[C@H](N5)[C@H]3[C@H](C)O4)c12 [Example 19-1] | Tmax | 2
C#Cc1c(F)ccc2cc(O)cc(-c3nc4c5c(nc(OCC6(CN7CC8CC(=C(F)F)CC8C7)CC6)nc5c3F)N3C[C@H]5CC[C@H](N5)[C@H]3[C@H](CC)O4)c12 (some centres unmarked) [Example 141] | Tmax | 2

Kindly give each listed record's Tmax.
1. [2H]C([2H])([2H])[C@@H]1Oc2nc(-c3cc(N)cc(Cl)c3C(F)(F)F)c(F)c3nc(OCC4(CN5CCC(=NOC)CC5)CC4)nc(c23)N2C[C@H]3CC[C@H](N3)[C@@H]12 [Example 339]
2. C#Cc1c(F)ccc2cc(O)cc(-c3nc4c5c(nc(OCC6(CN7CCC(=CF)CC7)CC6)nc5c3F)N3C[C@H]5CC[C@H](N5)[C@H]3[C@H](CC)O4)c12 [Example 137]
3. C#Cc1c(F)ccc2cc(O)cc(-c3nc4c5c(nc(OCC6(CN7CCCC(=C(F)F)CC7)CC6)nc5c3F)N3C[C@H]5CC[C@H](N5)[C@H]3[C@H](CC)O4)c12 [Example 140]
4. CON=C1CCN(CC2(COc3nc4c5c(nc(-c6cc(N)cc(Cl)c6C(F)(F)F)c(F)c5n3)O[C@@H](C)[C@@H]3[C@@H]5CC[C@H](CN43)N5)CC2)CC1 [Example 337]
5. [2H]C([2H])([2H])[C@@H]1Oc2nc(-c3cc(O)cc4ccc(F)c(C#C)c34)c(F)c3nc(OCC4(CN5CCC(=CF)CC5)CC4)nc(c23)N2C[C@H]3CC[C@H](N3)[C@@H]12 [Example 164]

*A*
2
4
2
4
2

*Q* Any idea what its Tmax is? The compound is C#Cc1c(F)ccc2cc(O)cc(-c3nc4c5c(nc(OCC6(CN7CCC(=CF)CC7C)CC6)nc5c3F)N3CC5CCC(N5)C3C(C)O4)c12 (centres unmarked) [Example 285]
*A* 2

----------
- assay overview: Plasma stability test, dog plasma;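 note: parent compound left in dog plasma quantified by LC-MS with positive electrospray ionization, selected reaction monitoring and an internal standard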
- Format: in vitro ADME
- test context: Dog plasma, 37°C, 30 min
Record form. Attribute: Remaining rate (%) 30 min. Fill in for each entry.
Answers are plain numbers, in %.

Consider the reported Remaining rate (%) 30 min for these compounds:
query smiles | readout unit | Remaining rate (%) 30 min
[2H]C([2H])(Oc1nc2c3c(nc(-c4cc(O)cc5ccc(F)c(C#C)c45)c(F)c3n1)O[C@@H](C)[C@@H]1[C@@H]3CC[C@H](CN21)N3)C1(C([2H])([2H])N2CCC(=CF)CC2)CC1 | % | 94.89
[2H]C([2H])([2H])[C@@H]1Oc2nc(-c3cc(O)cc4ccc(F)c(C#C)c34)c(F)c3nc(OCC4(CN5CCC(=CF)CC5)CC4)nc(c23)N2C[C@H]3CC[C@H](N3)[C@@H]12 | % | 94.94
C#Cc1c(F)ccc2cc(O)cc(-c3nc4c5c(nc(OCC6(CN7CCC(=C(F)F)CC7)CC6)nc5c3F)N3C[C@H]5CC[C@H](N5)[C@H]3CO4)c12 | % | 105.57
C#Cc1c(F)ccc2cc(O)cc(-c3nc4c5c(nc(OCC6(CN7CCC(=CF)CC7)CC6)nc5c3F)N3C[C@H]5CC[C@H](N5)[C@H]3[C@H](C)O4)c12 | % | 100.22

Now look at this entry.
*Q* Any idea what its Remaining rate (%) 30 min is? The compound is "C#Cc1c(F)ccc2cc(O)cc(-c3nc4c5c(nc(OCC6(CN7CCC(=C(F)F)CC7)CC6)nc5c3F)N3C[C@H]5CC[C@H](N5)[C@H]3[C@H](C)O4)c12"
*A* 101.96
